target: GnT-V (β1,6-N-acetylglucosaminyl transferase) (Homo sapiens, UniProt Q09328); construct: 73/60 kDa; test: GnT-V enzyme activity assay with fluorescence-labeled sugar acceptors, product separated by HPLC; format: biochemical; conditions: acceptor 70 μM; purified GnT-V 0.1 mg protein/ml; GnGn-bi-PA = 100
Sequence (Q09328 31-741): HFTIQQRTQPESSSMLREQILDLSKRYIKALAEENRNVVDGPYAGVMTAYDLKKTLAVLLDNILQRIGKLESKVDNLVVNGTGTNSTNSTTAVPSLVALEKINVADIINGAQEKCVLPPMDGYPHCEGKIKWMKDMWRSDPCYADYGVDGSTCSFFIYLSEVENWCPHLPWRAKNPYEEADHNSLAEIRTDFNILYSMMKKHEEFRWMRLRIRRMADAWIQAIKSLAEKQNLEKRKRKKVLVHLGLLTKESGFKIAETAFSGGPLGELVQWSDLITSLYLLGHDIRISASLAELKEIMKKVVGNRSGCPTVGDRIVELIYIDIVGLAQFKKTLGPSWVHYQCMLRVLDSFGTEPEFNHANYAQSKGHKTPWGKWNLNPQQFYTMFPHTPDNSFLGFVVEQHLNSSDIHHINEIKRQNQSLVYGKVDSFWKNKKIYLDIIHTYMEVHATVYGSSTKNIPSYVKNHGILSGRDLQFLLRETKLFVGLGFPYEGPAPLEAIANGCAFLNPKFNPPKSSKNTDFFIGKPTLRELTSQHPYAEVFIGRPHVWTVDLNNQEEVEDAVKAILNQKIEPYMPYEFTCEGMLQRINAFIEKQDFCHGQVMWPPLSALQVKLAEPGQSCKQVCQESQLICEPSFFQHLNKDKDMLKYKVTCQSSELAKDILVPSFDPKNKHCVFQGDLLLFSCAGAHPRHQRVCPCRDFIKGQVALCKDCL
endpoint: Relative reaction rate
Answer with the value's number alone.

As a guide, the following entries are already answered.
compound	Relative reaction rate
CC(=O)N[C@H]1[C@H](O[C@H]2[C@@H](O)[C@@H](CO)O[C@@H](O[C@@H]([C@H](O)[C@@H](O)CNc3ccccn3)[C@H](O)CO)[C@@H]2O)O[C@H](CO)[C@@H](O)[C@@H]1O [Lacto-N-triaose-PA, GlcNAcβ1-3Galβ1-4Glc-2-aminopyridine]	0
CC(=O)N[C@H]1[C@H](O[C@H]2[C@@H](O)[C@@H](CO)O[C@@H](O[C@@H]([C@H](O)[C@@H](O)CNc3ccccn3)[C@H](O)CO)[C@@H]2O)O[C@H](CO)[C@@H](O[C@@H]2O[C@H](CO)[C@H](O)[C@H](O)[C@H]2O)[C@@H]1O [Lacto-N-neotetraose-PA]	0
CC(=O)N[C@H]1[C@H](O[C@@H]([C@H](O)[C@H](CNc2ccccn2)NC(C)=O)[C@H](O)CO[C@@H]2O[C@@H](C)[C@@H](O)[C@@H](O)[C@@H]2O)O[C@H](CO)[C@@H](O[C@@H]2O[C@H](CO[C@H]3O[C@H](CO)[C@@H](O)[C@H](O)[C@@H]3O[C@@H]3O[C@H](CO)[C@@H](O)[C@H](O)[C@H]3NC(C)=O)[C@@H](O)[C@H](O[C@H]3O[C@H](CO)[C@@H](O)[C@H](O)[C@@H]3O[C@@H]3O[C@H](CO)[C@@H](O)[C@H](O)[C@H]3NC(C)=O)[C@@H]2O)[C@@H]1O [GnGnF-bi-PA]	78
CC(=O)N[C@H]1[C@H](O[C@@H]([C@H](O)[C@H](CNc2ccccn2)NC(C)=O)[C@H](O)CO)O[C@H](CO)[C@@H](O[C@@H]2O[C@H](CO[C@H]3O[C@H](CO)[C@@H](O)[C@H](O)[C@@H]3O)[C@@H](O)[C@H](O[C@H]3O[C@H](CO)[C@@H](O)[C@H](O)[C@@H]3O)[C@@H]2O)[C@@H]1O [MM-PA]	0

Entry CC(=O)N[C@H]1[C@H](O[C@@H]([C@H](O)[C@H](CNc2ccccn2)NC(C)=O)[C@H](O)CO)O[C@H](CO)[C@@H](O[C@@H]2O[C@H](CO[C@H]3O[C@H](CO)[C@@H](O)[C@H](O)[C@@H]3O[C@@H]3O[C@H](CO)[C@@H](O)[C@H](O)[C@H]3NC(C)=O)[C@@H](O[C@@H]3O[C@H](CO)[C@@H](O)[C@H](O)[C@H]3NC(C)=O)[C@H](O[C@H]3O[C@H](CO)[C@@H](O)[C@H](O)[C@@H]3O[C@@H]3O[C@H](CO)[C@@H](O)[C@H](O)[C@H]3NC(C)=O)[C@@H]2O)[C@@H]1O [Gn(Gn)Gn-bi-PA] ; Relative reaction rate = 0

Quick note, Relative reaction rate for CC(=O)N[C@H]1[C@H](O[C@@H]([C@H](O)[C@H](CNc2ccccn2)NC(C)=O)[C@H](O)CO)O[C@H](CO)[C@@H](O[C@@H]2O[C@H](CO[C@H]3O[C@H](CO)[C@@H](O)[C@H](O)[C@@H]3O[C@@H]3O[C@H](CO)[C@@H](O)[C@H](O)[C@H]3NC(C)=O)[C@@H](O)[C@H](O[C@H]3O[C@H](CO)[C@@H](O)[C@H](O)[C@@H]3O)[C@@H]2O)[C@@H]1O [GnM-PA] landed at 66
